Assay: Luminescence activity of ZZ-fused WNanoKAZ mutants in crude enzyme solution (Example 10)
Assay type: biochemical
Conditions: coelenterazine substrate, Imax
measured attribute: fold higher activity than native KAZ (fold)
// return numeric value only (unit: fold, not printed)

[[record]]
molecule = "WNanoKAZ-K124Q: single amino acid-substituted WNanoKAZ mutant K124Q; SEQ ID NO: 12 (protein) FTLADFVGDWQQTAGYNQDQVLEQGGLSSLFQALGVSVTPIQKVVLSGENGLKADIHVIIPYEGLSGFQMGLIEMIFKVVYPVDDHHFKVILHYGTLVIDGVTPNMIDYFGRPYEGIAVFDGKQITVTGTLWNGNKIIDERLINPDGSLLFRVTINGVTGWRLCERILA"
measured_attribute = "fold higher activity than native KAZ"
experimental_result = 34


Switching to the query record.
[ask] Output fold higher activity than native KAZ of WNanoKAZ-R166N: single amino acid-substituted WNanoKAZ mutant R166N; SEQ ID NO: 16 (protein) FTLADFVGDWQQTAGYNQDQVLEQGGLSSLFQALGVSVTPIQKVVLSGENGLKADIHVIIPYEGLSGFQMGLIEMIFKVVYPVDDHHFKVILHYGTLVIDGVTPNMIDYFGRPYEGIAVFDGKKITVTGTLWNGNKIIDERLINPDGSLLFRVTINGVTGWRLCENILA
[reply] 32
